target: Protein cereblon/Histone acetyltransferase p300 (Homo sapiens) (UniProt Q09472+Q96SW2); test: PROTAC activity at CRBN/HiBiT-tagged p300 in human HAP1 cells assessed as induction of p300 degradation by measuring maximal efficacy at 100 nM measured over 24 hrs by luminescence based analysis relative to control; assay type: cell-based
Sequence (Q09472 2-2414 limits assumed): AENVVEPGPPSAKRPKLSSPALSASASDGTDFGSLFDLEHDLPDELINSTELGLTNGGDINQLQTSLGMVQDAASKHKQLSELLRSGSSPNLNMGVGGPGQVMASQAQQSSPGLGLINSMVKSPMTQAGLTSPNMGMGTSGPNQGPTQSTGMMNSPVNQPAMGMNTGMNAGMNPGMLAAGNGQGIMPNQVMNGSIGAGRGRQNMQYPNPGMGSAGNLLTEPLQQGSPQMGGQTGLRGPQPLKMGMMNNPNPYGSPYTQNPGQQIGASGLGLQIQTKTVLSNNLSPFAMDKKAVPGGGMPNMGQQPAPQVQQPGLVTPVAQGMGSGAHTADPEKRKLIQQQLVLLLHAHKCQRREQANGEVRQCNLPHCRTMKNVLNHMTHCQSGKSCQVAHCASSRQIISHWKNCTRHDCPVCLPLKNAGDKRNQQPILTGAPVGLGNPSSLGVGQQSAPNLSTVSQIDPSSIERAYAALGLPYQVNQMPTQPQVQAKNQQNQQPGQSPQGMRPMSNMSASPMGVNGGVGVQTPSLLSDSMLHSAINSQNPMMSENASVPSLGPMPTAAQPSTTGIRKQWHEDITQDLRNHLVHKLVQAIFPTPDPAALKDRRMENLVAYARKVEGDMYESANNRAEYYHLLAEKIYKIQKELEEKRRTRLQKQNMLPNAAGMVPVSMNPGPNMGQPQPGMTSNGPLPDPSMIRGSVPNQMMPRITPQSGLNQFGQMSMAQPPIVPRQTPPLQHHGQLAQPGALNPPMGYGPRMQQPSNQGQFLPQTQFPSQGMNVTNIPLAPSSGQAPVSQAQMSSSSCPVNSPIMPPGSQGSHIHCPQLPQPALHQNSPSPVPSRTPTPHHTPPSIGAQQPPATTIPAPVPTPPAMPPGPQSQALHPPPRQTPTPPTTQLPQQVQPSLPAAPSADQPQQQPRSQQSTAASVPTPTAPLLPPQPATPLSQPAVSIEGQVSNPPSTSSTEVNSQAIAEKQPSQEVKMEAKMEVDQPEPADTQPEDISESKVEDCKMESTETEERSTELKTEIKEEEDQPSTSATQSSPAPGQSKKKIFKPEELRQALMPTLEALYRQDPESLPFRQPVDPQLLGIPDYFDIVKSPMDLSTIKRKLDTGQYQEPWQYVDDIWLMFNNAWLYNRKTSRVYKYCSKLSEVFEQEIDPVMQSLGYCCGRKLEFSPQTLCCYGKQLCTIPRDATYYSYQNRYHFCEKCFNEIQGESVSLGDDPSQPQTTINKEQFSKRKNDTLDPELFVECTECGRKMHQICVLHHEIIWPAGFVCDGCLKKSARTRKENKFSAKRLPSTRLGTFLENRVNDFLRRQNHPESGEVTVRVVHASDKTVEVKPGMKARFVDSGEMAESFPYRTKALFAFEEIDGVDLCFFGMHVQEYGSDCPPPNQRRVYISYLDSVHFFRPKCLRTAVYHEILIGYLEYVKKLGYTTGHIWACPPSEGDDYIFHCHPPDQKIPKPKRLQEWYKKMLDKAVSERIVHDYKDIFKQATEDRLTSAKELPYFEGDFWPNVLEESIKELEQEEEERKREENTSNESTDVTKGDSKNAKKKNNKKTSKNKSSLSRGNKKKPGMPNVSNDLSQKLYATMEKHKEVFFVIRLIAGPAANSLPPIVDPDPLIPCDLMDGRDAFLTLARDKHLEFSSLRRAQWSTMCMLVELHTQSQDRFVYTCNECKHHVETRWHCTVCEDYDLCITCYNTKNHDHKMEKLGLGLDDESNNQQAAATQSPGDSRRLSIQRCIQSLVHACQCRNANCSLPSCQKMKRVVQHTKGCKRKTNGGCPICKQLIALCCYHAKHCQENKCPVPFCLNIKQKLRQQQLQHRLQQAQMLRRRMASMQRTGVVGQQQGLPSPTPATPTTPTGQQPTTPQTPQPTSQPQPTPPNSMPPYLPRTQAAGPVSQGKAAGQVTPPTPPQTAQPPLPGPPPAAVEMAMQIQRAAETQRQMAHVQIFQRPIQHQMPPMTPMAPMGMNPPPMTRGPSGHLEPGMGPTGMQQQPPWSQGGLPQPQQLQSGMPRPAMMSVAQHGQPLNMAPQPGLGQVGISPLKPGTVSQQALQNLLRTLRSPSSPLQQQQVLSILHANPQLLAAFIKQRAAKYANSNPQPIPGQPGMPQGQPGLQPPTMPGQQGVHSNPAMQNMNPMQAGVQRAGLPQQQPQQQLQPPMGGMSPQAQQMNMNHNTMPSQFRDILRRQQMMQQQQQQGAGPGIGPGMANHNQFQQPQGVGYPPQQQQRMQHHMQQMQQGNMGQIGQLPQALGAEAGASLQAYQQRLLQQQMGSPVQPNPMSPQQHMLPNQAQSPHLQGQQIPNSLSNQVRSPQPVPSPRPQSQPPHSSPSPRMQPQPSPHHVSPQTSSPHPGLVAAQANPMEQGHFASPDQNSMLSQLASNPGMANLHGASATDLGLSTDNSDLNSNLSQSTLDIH
Sequence (Q96SW2 whole entry partner): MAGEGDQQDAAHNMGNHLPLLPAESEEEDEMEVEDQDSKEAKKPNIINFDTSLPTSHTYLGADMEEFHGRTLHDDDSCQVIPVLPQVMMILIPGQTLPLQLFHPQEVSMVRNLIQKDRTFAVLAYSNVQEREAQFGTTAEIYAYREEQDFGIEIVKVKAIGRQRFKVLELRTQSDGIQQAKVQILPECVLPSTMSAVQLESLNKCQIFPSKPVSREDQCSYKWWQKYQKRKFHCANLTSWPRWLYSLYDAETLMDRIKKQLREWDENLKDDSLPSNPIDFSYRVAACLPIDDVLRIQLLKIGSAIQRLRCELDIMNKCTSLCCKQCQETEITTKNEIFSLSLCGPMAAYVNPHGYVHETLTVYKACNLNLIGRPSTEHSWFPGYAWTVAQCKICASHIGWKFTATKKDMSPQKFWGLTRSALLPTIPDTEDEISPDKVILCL
assay endpoint: Emax (%)

Q: Quick one: Emax for CNC(=O)N1CCc2c(c(N3CCCc4cc(-c5cnn(C)c5)c(C(F)F)cc43)nn2C2CCN(C(=O)CCOCCNc3ccc4c(c3)C(=O)N(C3CCC(=O)NC3=O)C4=O)CC2)C1 (centres undefined) ?
A: 73

1 = CNC(=O)N1CCc2c(c(N3CCCc4cc(-c5cnn(C)c5)c(C(F)(F)F)cc43)nn2C2CCN(C(=O)CCOCCOCCOCCOCCNc3ccc4c(c3)C(=O)N(C3CCC(=O)NC3=O)C4=O)CC2)C1 (centres undefined)
2 = CNC(=O)N1CCc2c(c(N3CCCc4cc(-c5cnn(CC(=O)NCCOCCOCCOCCOCCOCCOCCNc6ccc7c(c6)C(=O)N(C6CCC(=O)NC6=O)C7=O)c5)c(C(F)F)cc43)nn2C2CCOCC2)C1 (centres undefined)
3 = CNC(=O)N1CCc2c(c(N3CCCc4cc(-c5cnn(CC(=O)NCCOCCOCCOCCOCCNc6ccc7c(c6)C(=O)N(C6CCC(=O)NC6=O)C7=O)c5)c(C(F)F)cc43)nn2C2CCOCC2)C1 (centres undefined)
Q: Please rank these compounds by Emax in descending order. The labels, placed in the requested order, form the answer.
A: 1, 3, 2
(1: 88%, 3: 51%, 2: 21%)
